System: Pseudomonas aeruginosa
TEST_DESCRIPTION: Minimal inhibitory concentration against Pseudomonas aeruginosa A3 was determined by 2-fold agar dilution streak method at 37: C for 18 h
Type: functional
Some compounds, each annotated with its measured MIC.
TEST_READOUT: MIC (µg/mL)

> print(dat)
                                   compound      u  meas.value
1  NCCCC(=O)NC1CC(N)C(OC2OC(CN)CCC2N)C(O)C1OC1OC(CO)C(O)C(N)C1O (stereo not given)  µg/mL        3.13
2  NCC1CCC(N)C(OC2C(N)CC(NC(=O)CCCN=C(N)N)C(OC3OC(CO)C(O)C(N)C3O)C2O)O1 (stereo not given)  µg/mL        6.25
3  NCC1CCC(N)C(OC2C(N)CC(NC(=O)[C@H](O)CCN=C(N)N)C(OC3OC(CO)C(O)C(N)C3O)C2O)O1 (stereo not given in full)  µg/mL        0.39
4  NCC1CCC(N)C(OC2C(N)CC(NC(=O)[C@H](N)CCCN=C(N)N)C(OC3OC(CO)C(O)C(N)C3O)C2O)O1 (stereo not given in full)  µg/mL         100
5  NCC1CCC(N)C(OC2C(N)CC(N=C(N)N)C(OC3OC(CO)C(O)C(N)C3O)C2O)O1 (stereo not given)  µg/mL          25

* * *

Some compounds, each annotated with its measured MIC.
Test system: Mycolicibacterium smegmatis
TEST_DESCRIPTION: Minimal inhibitory concentration against Mycobacterium smegmatis ATCC607 was determined by 2-fold agar dilution streak method at 37C for 42h
Format: functional
TEST_READOUT: MIC

> print(dat)
                                   compound  meas.value
1  NCC1CCC(N)C(OC2C(N)CC(N=C(N)N)C(OC3OC(CO)C(O)C(N)C3O)C2O)O1 (stereo not given)  3.13 µg/mL
2  NCC1CCC(N)C(OC2C(N)CC(NC(=O)[C@H](O)CCN=C(N)N)C(OC3OC(CO)C(O)C(N)C3O)C2O)O1 (stereo not given in full)  0.39 µg/mL
3  NCCCC(=O)NC1CC(N)C(OC2OC(CN)CCC2N)C(O)C1OC1OC(CO)C(O)C(N)C1O (stereo not given)  6.25 µg/mL
4  NCC1CCC(N)C(OC2C(N)CC(NC(=O)CCCN=C(N)N)C(OC3OC(CO)C(O)C(N)C3O)C2O)O1 (stereo not given)  6.25 µg/mL
5  NCC1CCC(N)C(OC2C(N)CC(NC(=O)[C@H](N)CCCN=C(N)N)C(OC3OC(CO)C(O)C(N)C3O)C2O)O1 (stereo not given in full)    25 µg/mL

* * *

Test system: Staphylococcus aureus
TEST_DESCRIPTION: Minimal inhibitory concentration against Staphylococcus aureus FDA209P was determined by 2-fold agar dilution streak method at 37: C for 18 h
Assay type: functional
Some molecules, each annotated with its measured MIC.
TEST_READOUT: MIC (mg/L)

> print(dat)
                                   molecule     u  meas.value
1  NCCCC(=O)NC1CC(N)C(OC2OC(CN)CCC2N)C(O)C1OC1OC(CO)C(O)C(N)C1O (stereo not given)  mg/L        1.56
2  NCC1CCC(N)C(OC2C(N)CC(NC(=O)CCCN=C(N)N)C(OC3OC(CO)C(O)C(N)C3O)C2O)O1 (stereo not given)  mg/L        1.56
3  NCC1CCC(N)C(OC2C(N)CC(NC(=O)[C@H](N)CCCN=C(N)N)C(OC3OC(CO)C(O)C(N)C3O)C2O)O1 (stereo not given in full)  mg/L        6.25
4  NCC1CCC(N)C(OC2C(N)CC(N=C(N)N)C(OC3OC(CO)C(O)C(N)C3O)C2O)O1 (stereo not given)  mg/L        0.78
5  NCC1CCC(N)C(OC2C(N)CC(NC(=O)[C@H](O)CCN=C(N)N)C(OC3OC(CO)C(O)C(N)C3O)C2O)O1 (stereo not given in full)  mg/L         0.2
